Value source: patent US20230174596A1

Please provide measured Cellular Assay IC50, mVEGF (50 ng/ml) for the entries that follow.
# tested.system: T1, mVEGF (mouse, UniProt Q00731-2 27-190, limits assumed)
# T1 sequence (looked up): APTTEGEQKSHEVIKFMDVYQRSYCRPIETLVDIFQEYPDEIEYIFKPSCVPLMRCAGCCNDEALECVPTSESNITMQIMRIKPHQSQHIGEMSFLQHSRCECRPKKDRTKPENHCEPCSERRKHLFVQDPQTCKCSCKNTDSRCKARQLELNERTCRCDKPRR
# assay.explanation: cell-based or functional assay
// unit must come after the numeric part

Input GCPTTRFKQYCKQDSDCLAGCVCGPNGFCG (designed binder) [VEGF_CKP6] . Output Cellular Assay IC50, mVEGF (50 ng/ml): 169 µM

Input GCQLMQPFWGCKQDSDCLAGCVCHWYQSCG (designed binder) [VEGF_CKP9] . Output Cellular Assay IC50, mVEGF (50 ng/ml): 10 µM

Input GCQDPTFNWALYCKQDSDCLAGCVCQMYQSCG (designed binder) [VEGF_CKP7] . Output Cellular Assay IC50, mVEGF (50 ng/ml): 39 µM

Input GCTTPWPPHEIMCKQDSDCLAGCVCGPNGFCG (designed binder) [VEGF_CKP12] . Output Cellular Assay IC50, mVEGF (50 ng/ml): 243 µM
